- Assay Method Text: P. aeruginosa biofilm formation inhibitors, primary screen, PAO1 strain, BacTiter-Glo luminescence, LB-PBS (AID 1144)
- Study Conditions: 12 h, higher = more signal
Give measured z-score for each item. Keep answers brief.
Numbers only.

Which z-score is listed for `CCOC(=O)C[C@H]1[C@H](OC(=O)c2ccc(C(=O)c3ccccc3)cc2)[C@@H](NC(=O)c2ccccc2)c2cc(OCCCO)ccc2N1C(=O)Cc1ccc(OC)cc1` ?
-0.0343

Please answer likewise for `CC[C@@H]1C=C(C(=O)O)[C@H](c2ccc(Br)cc2)N1S(=O)(=O)c1ccc(C)cc1`
0.598

Below: the item to evaluate.
Which z-score is listed for `C=CCNC(=O)[C@@H]1[C@H]2C(=O)O[C@H](c3ccccc3)[C@H](c3ccccc3)N2[C@H](c2ccc(O)cc2)[C@@]12C(=O)N(C(=O)OCCOC)c1ccc(C#CCNC(N)=O)cc12` ?
-0.298

====

- Assay Method Text: HepG2 cell viability effects, profiling panel, calcein-AM fluorescence, 48 h, basal (AID 1164); further: test concentration not given here
- Study Conditions: higher = more signal
Give measured z-score for each item. Keep answers brief.

Would you be so kind as to report z-score for each listed record?
1. C=CCOC(=O)[C@H]1[C@@H]2C(=O)O[C@@H](c3ccccc3)[C@@H](c3ccccc3)N2[C@@H](c2ccc(OCCOC(=O)[C@@H]3C[C@@H]4C(=O)N[C@@H](CCCCNC(C)=O)C(=O)N4[C@@H]3c3ccc(O)cc3)cc2)[C@]12C(=O)Nc1ccccc12
2. COc1ccc(CCNC(=O)[C@@]2(C)c3ccccc3C(=O)N(C(C)C)[C@H]2c2ccc(CO)cc2)cc1

1: -0.578; 2: 0.779

Would you be so kind as to report z-score for each listed record?
1. C=CCOC(=O)[C@H]1[C@@H]2C(=O)O[C@@H](c3ccccc3)[C@@H](c3ccccc3)N2[C@@H](c2ccc(OCCOC(=O)[C@@H]3C[C@@H]4C(=O)N[C@@H](CC(C)C)C(=O)N4[C@@H]3c3ccc(O)cc3)cc2)[C@]12C(=O)Nc1ccccc12
2. O=C1c2ccccc2[C@](Cc2ccccc2I)(C(=O)NCCN2CCOCC2)[C@H](c2ccc(CO)cc2)N1Cc1ccccc1Cl

[-0.529, 0.63]

====

Give measured composite z-score for each item. Keep answers brief.
- Measured On: Torsin-1A (Homo sapiens)
- Assay Method Text: torsin A binders from cell lysate, primary screen, small-molecule microarray, wild-type, 635/667 nm (AID 1149)
- Study Conditions: COS7 hTOR1A-WT lysate, 635 nm fluorescence, higher = more signal
Answers are plain numbers.

Worked examples, 4 compounds total:
Which composite z-score is listed for CN1C(=O)C2C=CC(C(O)C3CC=CCC3)N(N(c3ccccc3)c3ccccc3)C2C1=O (stereo unspecified) ?
0.36

Please answer likewise for `C=CC[C@]1(C(=O)NCCCOC)N=C(c2ccc(OCCCO)cc2)O[C@H]1c1ccccc1CN=[N+]=[N-]`
0.883

Please answer likewise for `C=C(CC1([C@@H](NP(=O)(c2ccccc2)c2ccccc2)[C@H]2C[C@@H]2CCCC)CC1)c1ccccc1`
0.443

Please answer likewise for `COCCOC(=O)N1C(=O)[C@@]2(c3cc(C#CCC(C(=O)OC)C(=O)OC)ccc31)[C@H](C(=O)N1CCN(c3ncccn3)CC1)[C@H]1C(=O)O[C@H](c3ccccc3)[C@H](c3ccccc3)N1[C@@H]2c1ccccc1OCCO`
0.135

Would you be so kind as to report composite z-score for each listed record?
1. CN(C)C(=O)[C@]1(Cc2ccccc2N=[N+]=[N-])N=C(c2ccc(OCCCO)cc2)O[C@@H]1c1ccccc1N=[N+]=[N-]
2. [N-]=[N+]=NCc1ccccc1[C@@H]1OC(c2ccc(OCCCO)cc2)=N[C@]1(Cc1ccccc1)C(N)=O
3. CC(C)NC(=O)[C@@H]1c2ccccc2C(=O)N(C2Cc3ccccc3C2)[C@H]1c1ccc(CO)cc1
4. COc1cc(NN2C(C(O)c3ccco3)C=CC3C(=O)N(c4ccccc4)C(=O)C32)cc(OC)c1OC (stereo unspecified)
5. O=C1C[C@@](C(=O)NCCN2CCOCC2)(c2ccc([N+](=O)[O-])cc2)[C@@H](c2ccc(CO)cc2)N1CC12CC3CC(CC(C3)C1)C2
6. COc1ccc([C@H]2OC[C@@H]3C[C@@H](Cc4ccccc4)C(=O)N32)cc1
7. C#C[C@H](O[Si](C#Cc1ccc(Oc2ccccc2)cc1)(C(C)C)C(C)C)c1ccccc1
8. COCCCNC(=O)[C@@H]1c2ccccc2C(=O)N(Cc2ccccc2Cl)[C@H]1c1ccc(CO)cc1

[1.49, 0.162, -0.232, -0.967, 0.179, 0.656, 1.38, 0.494]

Would you be so kind as to report composite z-score for each listed record?
1. CCOC(=O)[C@H]1C/C=C/C[C@H](C(=O)OCC)C(=O)O[C@H]2[C@@H](OC)O[C@H](CO)[C@@H](OC(=O)c3c(OC)cccc3OC)[C@@H]2OC1=O
2. C[N+](C)(C)CCCCNC(=O)[C@H]1C[C@H]2C(=O)N3CCC[C@H]3C(=O)N2[C@H]1c1cccc(OCCO)c1
3. CO[C@H]1O[C@H](CO)[C@@H](OC(=O)Nc2cccc(F)c2)[C@H](OC(=O)Nc2ccccc2)[C@@H]1OC(=O)Nc1ccccc1
4. Cc1ccc(S[C@]2(C(=O)NCCCN(C)C)CC(=O)N(Cc3cc(C(F)(F)F)cc(C(F)(F)F)c3)[C@@H]2c2ccc(CO)cc2)cc1

1: 0.292; 2: -0.215; 3: 0.434; 4: -0.0089

====

- Measured On: Left-right determination factor 2 (Homo sapiens) (UniProt O00292)
- Sequence (O00292 whole entry, looked up): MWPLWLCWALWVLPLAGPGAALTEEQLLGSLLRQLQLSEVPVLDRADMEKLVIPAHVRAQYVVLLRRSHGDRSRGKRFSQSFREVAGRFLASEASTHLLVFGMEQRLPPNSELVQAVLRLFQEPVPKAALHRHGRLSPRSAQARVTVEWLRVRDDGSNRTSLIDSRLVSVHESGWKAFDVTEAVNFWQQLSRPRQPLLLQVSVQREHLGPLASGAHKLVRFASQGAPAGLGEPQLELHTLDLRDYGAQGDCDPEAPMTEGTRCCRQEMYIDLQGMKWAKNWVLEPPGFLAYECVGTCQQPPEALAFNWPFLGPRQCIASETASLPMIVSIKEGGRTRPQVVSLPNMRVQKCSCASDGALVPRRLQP
- Assay Method Text: LEFTY2 binders on small-molecule microarrays, primary screen, biochemical, small-molecule microarray, 635 nm fluorescence scan (AID 1110)
- Study Conditions: LEFTY2 binding, higher = more signal
Heads up, the class ranges for composite z-score are low: < 0.03; mid: ≥ 0.03 and < 0.3; high: ≥ 0.3

Some entries whose results are on file:
Please let me know in which category the item `CCOC(=O)C[C@H]1[C@H](OC(=O)c2ccccc2-c2ccccc2)[C@@H](NC(=O)CC(C)C)c2cc(OCCCO)ccc2N1C(=O)Cc1ccc(OC)cc1` belongs.
low

Please answer likewise for `CCOC(=O)C1=C[C@@H](C(C)(C)C)N(S(=O)(=O)c2ccc(C)cc2)[C@H]1c1ccc(F)cc1`
high

Please answer likewise for `COc1ccc(CCNC(=O)[C@@H]2c3ccccc3C(=O)N(Cc3ccccc3Cl)[C@H]2c2ccc(CO)cc2)cc1`
mid

Continuing:
Please let me know in which category the item O=C1C2C=CC(C(O)c3cccc4ccccc34)N(Nc3ccccc3F)C2C(=O)N1c1ccccc1 (stereo not given) belongs.
mid

Please answer likewise for `O=C(CS)NCCCCCCNC(=O)[C@@H]1C[C@@H]2C(=O)NCC(=O)N2[C@@H]1c1cccc(OCCO)c1`
low

Please answer likewise for `COc1ccc([C@H]2OC[C@@H]3C[C@@H](Cc4ccccc4)C(=O)N32)cc1`
high

Please answer likewise for CC(C)c1ccc(NN2C(C(O)c3ccc(B(O)O)cc3)C=CC3C(=O)N(c4ccccc4)C(=O)C32)cc1 (stereo not given)
low

====

- Measured On: Follistatin (Homo sapiens) (UniProt P19883)
- Sequence (P19883 whole entry, looked up): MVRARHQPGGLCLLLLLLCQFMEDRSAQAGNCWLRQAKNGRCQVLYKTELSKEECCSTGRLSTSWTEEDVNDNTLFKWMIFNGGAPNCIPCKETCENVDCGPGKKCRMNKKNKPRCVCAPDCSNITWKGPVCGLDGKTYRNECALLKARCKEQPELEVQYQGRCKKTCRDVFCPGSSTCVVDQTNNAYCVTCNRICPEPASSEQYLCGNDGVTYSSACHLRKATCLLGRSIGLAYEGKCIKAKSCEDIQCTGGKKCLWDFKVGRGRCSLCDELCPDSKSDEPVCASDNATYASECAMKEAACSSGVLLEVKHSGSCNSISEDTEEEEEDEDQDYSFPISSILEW
- Assay Method Text: follistatin binders on small-molecule microarrays, primary screen, biochemical, small-molecule microarray, 635/667 nm fluorescence (AID 1132)
- Study Conditions: FST binding, 635 nm fluorescence, higher = more signal
Give measured composite z-score for each item. Keep answers brief.

Worked examples, 3 compounds total:
// map `COC(=O)[C@@]1(Cc2ccc(F)cc2)[C@H]2c3cc(C(=O)N4CCCC4)n(CCCNc4ncc(C(F)(F)F)cc4Cl)c3C[C@H]2CN1C(=O)c1ccccc1` to recorded composite z-score (system: Follistatin (Homo sapiens) (UniProt P19883))
-0.0084

Please answer likewise for C=CCC(OC(C)=O)[C@@H]1[C@@H](N(Cc2ccc(-c3ccccc3)cc2)C(=O)c2cccc3ccccc23)c2cc(OCCCO)ccc2N1C(=O)c1ccc(-c2ccccc2)cc1 (some centres undefined)
0.435

Please answer likewise for `NCCCCCCNC(=O)[C@@H]1C[C@@H]2C(=O)NCC(=O)N2[C@@H]1c1ccc(O)cc1`
1.46

Would you be so kind as to report composite z-score for each listed record?
1. CC(C)C(CO)N1C(=O)[C@@H]2C3C(=O)OCCC/C=C\[C@H]3OC23C=CCN(CCN2CCOCC2)C(=O)[C@@H]13 (some centres undefined)
2. COc1cc2c(cc1OC)CN(C(=O)[C@@H]1[C@H]3C(=O)O[C@H](c4ccccc4)[C@H](c4ccccc4)N3[C@H](c3ccc(O)cc3)[C@@]13C(=O)Nc1ccccc13)CC2
3. O=C(OCc1ccccc1)C1=CCC2c3[nH]c4ccccc4c3C(=O)C1N2S(=O)(=O)c1ccccc1[N+](=O)[O-] (centres undefined)

0.113
0.421
1.11

Would you be so kind as to report composite z-score for each listed record?
1. CC(C)NC(=O)[C@@]1(C)c2ccccc2C(=O)N(Cc2cc(C(F)(F)F)cc(C(F)(F)F)c2)[C@H]1c1ccc(CO)cc1
2. CC(C)NC(=O)[C@@]1(c2ccc([N+](=O)[O-])cc2)CC(=O)N(C2CCCCC2)[C@@H]1c1ccc(CO)cc1I
3. COc1ccccc1CN1C(=O)c2ccccc2[C@@H](C(=O)NC2CC2)[C@@H]1c1ccc(CO)cc1

1. -0.101
2. -0.315
3. 1.42
